# Gastrotoxicity Lesion index (mm) listing for each entry below
tested on: Male Wistar rats (glandular mucosa of the stomach); test: Gastrolesive activity: gastric mucosal lesion index in rats; type: in vivo; conditions: rat, aspirin 120 mg/kg intragastric or equimolar doses, 3 hours after treatment, mean ± SEM

Worked cases, Gastrotoxicity Lesion index (mm) given:
compound="CCC(=O)Oc1ccccc1C(=O)O [Propanoylsalicylic acid, reference compound]" test_system="Male Wistar rats (glandular mucosa of the stomach)" value_kind="Gastrotoxicity Lesion index (mm)" observed="52.00 ± 11.78 mm"
compound="O=C(CCCC(CO[N+](=O)[O-])O[N+](=O)[O-])Oc1ccccc1C(=O)O (centres unmarked)" test_system="Male Wistar rats (glandular mucosa of the stomach)" value_kind="Gastrotoxicity Lesion index (mm)" observed="0.85 ± 0.64 mm"
compound="O=C(CCC(CO[N+](=O)[O-])O[N+](=O)[O-])Oc1ccccc1C(=O)O (centres unmarked)" test_system="Male Wistar rats (glandular mucosa of the stomach)" value_kind="Gastrotoxicity Lesion index (mm)" observed="0.50 ± 0.22 mm"
compound="CC(=O)Oc1ccccc1C(=O)O [Acetylsalicylic acid, reference compound]" test_system="Male Wistar rats (glandular mucosa of the stomach)" value_kind="Gastrotoxicity Lesion index (mm)" observed="44.75 ± 4.66 mm"

Next compound, please.
Exercise: Entry O=C(CCOc1no[n+]([O-])c1S(=O)(=O)c1ccccc1)Oc1ccccc1C(=O)O has what Gastrotoxicity Lesion index (mm)?
Key: 0.50 ± 0.31 mm
